- tested system: MCH-2 (Homo sapiens)
- Sequence (P55212 24-179 limits assumed): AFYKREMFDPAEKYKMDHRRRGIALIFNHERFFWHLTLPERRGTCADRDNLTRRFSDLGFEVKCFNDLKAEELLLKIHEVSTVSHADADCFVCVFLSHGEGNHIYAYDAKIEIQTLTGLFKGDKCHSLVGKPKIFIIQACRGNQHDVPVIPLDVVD
- Sequence (P55212 194-293 limits assumed): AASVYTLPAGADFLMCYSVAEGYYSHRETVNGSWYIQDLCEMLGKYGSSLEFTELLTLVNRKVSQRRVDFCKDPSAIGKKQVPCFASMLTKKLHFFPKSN
- protocol summary: Fluorescence enzyme assay, IC50 determination, Mch2
- Type: biochemical
- assay conditions: Ac-DEVD-AMC substrate, 30 min preincubation, room temperature; read-out: MCH-2 IC50
metric: IC50 (nM)

Request the reported IC50 associated with "CC(C)C[C@H](NC(=O)COc1cccc2ccccc12)C(=O)N[C@H](C=O)CC(=O)O"
995

Item under review: "CC(C)C[C@H](NC(=O)[C@H](CCC(=O)O)Oc1cccc2ccccc12)C(=O)N[C@H](C=O)CC(=O)O" . Reported IC50?
15

What measured IC50 goes with "CC(C)[C@H](NC(=O)COc1ccc2ccccc2c1C(=O)O)C(=O)N[C@H](C=O)CC(=O)O" ?
3610

Find the recorded IC50 belonging to "CC(C)C[C@H](NC(=O)COc1cccc2c1OC(C)(C)C2)C(=O)N[C@H](C=O)CC(=O)O" and report it.
13100

Which value of IC50 has been reported for "CC(C)[C@H](NC(=O)COc1c(C(=O)O)ccc2ccccc12)C(=O)N[C@H](C=O)CC(=O)O" in the records?
1430

So what does the record say about IC50 for "CC(C)C[C@H](NC(=O)CNc1cccc2ccccc12)C(=O)N[C@H](C=O)CC(=O)O" ?
37

[1] CC(C)C[C@H](NC(=O)[C@@H](CCC(=O)O)Oc1cccc2ccccc12)C(=O)N[C@H](C=O)CC(=O)O
[2] O=C[C@H](CC(=O)O)NC(=O)[C@@H]1CSC(c2ccccc2)N1C(=O)COc1cccc2ccccc12 (some centres unmarked)
Please indicate which item has the smaller measured IC50: 1 versus 2 Returns: label corresponding to the selected item.
1

---

- tested system: CPP32 (Homo sapiens, UniProt P42574)
- Sequence (P42574 29-175 limits assumed, species assumed): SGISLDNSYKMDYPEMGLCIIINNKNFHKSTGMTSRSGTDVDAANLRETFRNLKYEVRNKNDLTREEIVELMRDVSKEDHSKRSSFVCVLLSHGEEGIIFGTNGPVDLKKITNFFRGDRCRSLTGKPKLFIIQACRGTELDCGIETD
- Sequence (P42574 176-277 limits assumed, species assumed): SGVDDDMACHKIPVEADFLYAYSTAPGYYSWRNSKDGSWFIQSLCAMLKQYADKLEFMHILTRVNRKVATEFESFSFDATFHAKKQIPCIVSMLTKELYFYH
- protocol summary: Dissociation constant Ki and irreversible rate constant k3 for irreversible inhibitors, CPP32
- Assay type: biochemical
- assay conditions: continuous assay 60 min, reaction initiated by adding enzyme
Property: CPP32 k3/Ki; scope: individual compounds

For orientation, consider the following solved cases.
So what's the measured CPP32 k3/Ki for this one? CC(C)C[C@H](NC(=O)COc1c(C(=O)O)ccc2ccccc12)C(=O)N[C@@H](CC(=O)O)C(=O)COP(=O)(c1ccccc1)c1ccccc1 [Example 166]
317,000 M^−1s^−1

Need CPP32 k3/Ki, item CC(C)C[C@H](NC(=O)COc1ccccc1-c1ccccc1)C(=O)N[C@@H](CC(=O)O)C(=O)COc1c(F)c(F)cc(F)c1F [Example 164]
137,000 M^−1s^−1

For CC(C)[C@H](NC(=O)COc1cccc2ccccc12)C(=O)N[C@@H](CC(=O)O)C(=O)COP(C)(=O)c1ccc(F)cc1 (stereo partly drawn) [Example 108] , what is its reported CPP32 k3/Ki?
140,000 M^−1s^−1

New cases:
Request the reported CPP32 k3/Ki associated with CC(C)[C@H](NC(=O)COc1cccc2ccccc12)C(=O)N[C@@H](CC(=O)O)C(=O)COP(=O)(Cc1ccccc1)c1ccccc1 (stereo partly drawn) [Example 107]
424,000 M^−1s^−1

Looking for the measured CPP32 k3/Ki of CC(C)[C@H](NC(=O)COc1cccc2ccccc12)C(=O)N[C@@H](CC(=O)O)C(=O)COc1ccccc1F [Example 65] , can you help?
26,800 M^−1s^−1

Reported CPP32 k3/Ki, compound CC(C)[C@H](NC(=O)COc1cccc2ccccc12)C(=O)N[C@@H](CC(=O)O)C(=O)COc1cccc(F)c1 [Example 66] : ____
17,800 M^−1s^−1

For the compound shown here, CC(C)[C@H](NC(=O)COc1cccc2ccccc12)C(=O)N[C@@H](CC(=O)O)C(=O)COc1cccc(F)c1F [Example 68] , give the reported CPP32 k3/Ki.
28,800 M^−1s^−1

Quick one: CPP32 k3/Ki for CC(C)[C@H](NC(=O)COc1cccc2ccccc12)C(=O)N[C@@H](CC(=O)O)C(=O)COc1ccccc1 [Example 64] ?
19,200 M^−1s^−1

If you can, please state the reported CPP32 k3/Ki value of CC(C)[C@H](NC(=O)COc1cccc2ccccc12)C(=O)N[C@@H](CC(=O)O)C(=O)COc1cc(C(F)(F)F)nn1-c1ccccc1 [Example 143] .
121,000 M^−1s^−1

Reference source for all entries: patent US7157430B2
